All figures here come from patent US11041000B2.

- Assay overview: Stability in rat plasma
- Format: in vitro ADME
- Study conditions: both sexes, SD rat plasma, EDTA, 37° C., read-out: t½: Rat Plasma EDTA (converted)
Bridge positions count the residues as written; N and C are the ends. Square brackets hold non-standard residues; d marks the D form. Peptide text beside a SMILES is read from it. Trp(7-Me) = Cc1cccc2c(C[C@H](N)C(=O)O)c[nH]c12; 2Nal = N[C@@H](Cc1ccc2ccccc2c1)C(=O)O; AEF = NCCOc1ccc(C[C@H](N)C(=O)O)cc1; Cit = NC(=O)NCCC[C@H](N)C(=O)O; Pen = CC(C)(S)[C@H](N)C(=O)O; αMeK = C[C@](N)(CCCCN)C(=O)O; Sar = CNCC(=O)O
Would you kindly list half-life at 20 μM for each of these compounds?

Qu. Please look up its half-life at 20 μM: CC(=O)NCCCC[C@@H]1NC(=O)[C@H](Cc2c[nH]c3c(C)cccc23)NC(=O)[C@H]([C@@H](C)O)NC(=O)CNC(=O)[C@@H](NC(C)=O)C(C)(C)SSC(C)(C)[C@@H](C(=O)N[C@@H](Cc2ccc(OCCN)cc2)C(=O)N[C@@H](Cc2ccc3ccccc3c2)C(=O)N[C@@](C)(CCCCN)C(=O)N[C@@H](CCCCNC(C)=O)C(=O)N[C@@H](CC(N)=O)C(=O)N[C@H](CC(C)C)C(N)=O)NC1=O [compound 329] (Ac-[Pen]GT[Trp(7-Me)]K(Ac)[Pen][AEF][2Nal][αMeK]K(Ac)N[dL]-NH2; disulfide 1-6)
Ans. > 24 h

Qu. Request: CC(=O)NCCCC[C@@H]1NC(=O)[C@H](Cc2c[nH]c3c(C)cccc23)NC(=O)[C@H]([C@@H](C)O)NC(=O)[C@H](C)NC(=O)[C@@H](NC(C)=O)C(C)(C)SSC(C)(C)[C@@H](C(=O)N[C@@H](Cc2ccc(OCCN)cc2)C(=O)N[C@@H](Cc2ccc3ccccc3c2)C(=O)N[C@@](C)(CCCCN)C(=O)N[C@@H](CCCCNC(C)=O)C(=O)N[C@@H](CC(N)=O)C(=O)N[C@H](CC(C)C)C(N)=O)NC1=O [compound 328] (Ac-[Pen]AT[Trp(7-Me)]K(Ac)[Pen][AEF][2Nal][αMeK]K(Ac)N[dL]-NH2; disulfide 1-6)
Ans. > 24 h

Qu. Next record, please: CC(=O)NCCCC[C@@H]1NC(=O)[C@H](Cc2c[nH]c3c(C)cccc23)NC(=O)[C@H]([C@@H](C)O)NC(=O)[C@@H](CC(N)=O)NC(=O)[C@@H](NC(C)=O)C(C)(C)SSC(C)(C)[C@@H](C(=O)N[C@@H](Cc2ccc(OCCN)cc2)C(=O)N[C@@H](Cc2ccc3ccccc3c2)C(=O)N[C@@](C)(CCCCN)C(=O)N[C@@H](CCCCNC(C)=O)C(=O)N[C@@H](CC(N)=O)C(=O)N[C@H](CC(C)C)C(N)=O)NC1=O
Ans. > 24 h

Qu. Also need CC(=O)NCCCC[C@H](NC(=O)[C@](C)(CCCCN)NC(=O)[C@H](Cc1ccc2ccccc2c1)NC(=O)[C@H](Cc1ccc(OCCN)cc1)NC(=O)[C@H]1NC(=O)[C@H](CCCNC(N)=O)NC(=O)[C@H](Cc2c[nH]c3c(C)cccc23)NC(=O)[C@H]([C@@H](C)O)NC(=O)[C@H](CC(N)=O)NC(=O)[C@@H](NC(C)=O)C(C)(C)SSC1(C)C)C(=O)N[C@@H](CC(N)=O)C(=O)N(C)CC(N)=O [compound 339] (Ac-[Pen]NT[Trp(7-Me)][Cit][Pen][AEF][2Nal][αMeK]K(Ac)N[Sar]-NH2; disulfide 1-6) , thanks.
Ans. > 24 h
